# credit: PubChem BioAssay (EPA / NIEHS)

# Read-out: Collagen III, COL3A1 (gene 1281)
# ASSAY PROTOCOL: BSK_MyoF_CollagenIII: BioMAP Diversity Plus: MyoF Assay for Collagen III Biomarker Activity (AID 2284239)
# CONDITION CONTEXT: primary human lung fibroblasts
Calls of active or inactive are those of the source. How the source made its calls: active means hit-call score of the fitted dose curve at least 0.9, where 1 is the maximum; inactive means score below 0.9.
// one of active, inactive, no free text

-- ask Each compound tested received a call. Report the one for "C=CC(=O)NC(C)(C)C" .
-- reply inactive

-- ask "C=CC(=O)OCCCCCCOC(=O)C=C" , same question.
-- reply active

-- ask Lookup "CCOC(=O)/C=C\C(=O)OCC"
-- reply inactive

-- ask Further, for "CCCCCC1=CCCC1=O" ?
-- reply inactive

-- ask Follow-up item: "CCCCC1C(=O)N(c2ccccc2)N(c2ccccc2)C1=O"
-- reply inactive

-- ask How about this compound: "C=C(C)C(=O)OCCCCCCCCCCCC"
-- reply inactive

-- ask What do you have for "Cc1c(O)cccc1O" ?
-- reply inactive

-- ask Then what about the compound "CC=C(C)C(C)=O" ?
-- reply inactive

###

# Read-out: CD69, CD69 (gene 969)
# ASSAY PROTOCOL: BSK_SAg_CD69: BioMAP Diversity Plus: SAg Assay for CD69 Biomarker Activity (AID 2283089)
# CONDITION CONTEXT: primary human HUVEC with PBMC; actives raise or lower the signal
Active and inactive are the calls of the source. Rule for the calls: active = hit-call score of the fitted dose curve at least 0.9, where 1 is the maximum; inactive = score below 0.9.
Entry note: the call must match one of 1 for active, -1 for inactive

-- ask Outcome logged for "CC/C=C\C/C=C\C/C=C\CCCCCCCC(=O)OC" in this assay:
-- reply 1

-- ask // repeat for "O=C1CCCCCCCCCCC1" and report
-- reply -1

-- ask Now the molecule "C=CC(=O)NC(C)(C)C"
-- reply -1

-- ask Next up: "CCOC(=O)C1=NOC(c2ccccc2)(c2ccccc2)C1"
-- reply -1

-- ask Now give it for "O=C(Cl)c1c(Cl)c(Cl)c(C(=O)Cl)c(Cl)c1Cl" too.
-- reply -1

-- ask For "CC(C)c1cccc(C(C)C)c1N" then?
-- reply -1

-- ask Another molecule: "CC1=CC=C(C(C)C)CC1"
-- reply -1

-- ask # iterate: "CCOC(=O)/C=C\C(=O)OCC"
-- reply -1

###

# Read-out: E-selectin (Homo sapiens)
# ASSAY PROTOCOL: BSK_LPS_Eselectin: BioMAP Diversity Plus: LPS Assay for Eselectin Biomarker Activity (AID 2283077)
# CONDITION CONTEXT: primary human HUVEC with PBMC; actives raise or lower the signal
Calls of active or inactive are those of the source. The calls were made as follows: active = hit-call score of the fitted dose curve at least 0.9, where 1 is the maximum; inactive = score below 0.9.
Hi there, use one of these labels in your reply, thanks! active, inactive

-- ask Tell me the recorded outcome of this test for "c1ccc2c(c1)[nH]c1ccccc12" .
-- reply inactive

-- ask Would you mind doing "COC(OC)(C(=O)c1ccccc1)c1ccccc1" as well?
-- reply inactive

-- ask Another compound to check: "C=CC(=O)OCCCCCCOC(=O)C=C"
-- reply active

-- ask Lookup "CCOC(=O)/C=C\C(=O)OCC"
-- reply inactive

-- ask Would you mind doing "Oc1c(Cl)cc(Cl)c(Cl)c1Cl" as well?
-- reply active

-- ask // query: "O=C(O)C(F)(F)C(F)(F)C(F)(F)C(F)(F)C(=O)O"
-- reply inactive

-- ask Could you do the same for "c1ccc2sc(SSN3CCOCC3)nc2c1" , please?
-- reply inactive

-- ask Follow-up item: CCC1(C)C(=O)N(Cl)C(=O)N1Cl (stereo not drawn)
-- reply inactive

-- ask One more compound: "CCCCCCOC(=O)CCCCC(=O)OCCCCCC"
-- reply inactive

-- ask Then this compound: "CC/C=C\C/C=C\C/C=C\CCCCCCCC(=O)OC"
-- reply active

-- ask Record: "CC/C=C\CCOC(=O)c1ccccc1O"
-- reply active

-- ask Continue with "CCOC(=O)C1=NOC(c2ccccc2)(c2ccccc2)C1"
-- reply inactive

-- ask Then "COc1ccc(C(=O)c2ccccc2)c(O)c1" ?
-- reply inactive

-- ask Same lookup for "O=C(Oc1ccccc1)c1ccccc1C(=O)Oc1ccccc1" , please.
-- reply inactive

-- ask Subsequent entry: "CCCCCCC=O"
-- reply inactive

-- ask What about "CC(C)[N+](C)(CCOC(=O)C1c2ccccc2Oc2ccccc21)C(C)C" ?
-- reply inactive

-- ask Again, but for "CC1=CC=C(C(C)C)CC1"
-- reply inactive

-- ask Another compound: "CCCCCCCCCCCC(=O)N(C)CC(=O)O"
-- reply inactive

-- ask Let us now turn to "C=CC(=O)NCOCCCC"
-- reply inactive

-- ask Then what about the compound "CC(C)CCCCCOC(=O)CS" ?
-- reply inactive

-- ask Next compound up: "Cc1ccc([N+](=O)[O-])cc1N"
-- reply inactive

-- ask Do the same for C=CC(=O)OCC(C)OCC(C)OCC(C)OC(=O)C=C (stereo not drawn) please
-- reply active

-- ask // same read-out, input: "CCCCCC1=CCCC1=O"
-- reply inactive

-- ask // next record "C=CC(=O)OCCCCCCCC(C)C"
-- reply inactive

-- ask Now give it for "Oc1ccc(/C=C/c2cc(O)cc(O)c2)cc1" too.
-- reply inactive

-- ask How about this compound: "C=CC(=O)NC(C)(C)C"
-- reply inactive

-- ask // repeat for "CCNc1nc(NC(C)(C)C)nc(OC)n1" and report
-- reply inactive

-- ask # iterate: "Clc1cc(Cl)c(Cl)c(Cl)c1Cl"
-- reply inactive

-- ask Then this compound: "O=C(Cl)c1c(Cl)c(Cl)c(C(=O)Cl)c(Cl)c1Cl"
-- reply inactive

-- ask Ok, now "CCCCCCCO"
-- reply inactive

-- ask Further, for "CC=C(C)C=CC=C(C)C" ?
-- reply inactive

-- ask Please answer likewise for CCCCCCCCC(CO)CCCCCC (stereo not drawn)
-- reply inactive

-- ask Again, but for "Oc1ccccc1Cc1ccccc1O"
-- reply inactive
